Run Description: In vivo biodistribution in normal ICR mice
Measurement Parameters: i.v., 60 min
Provide the reported Biodistribution of radioactivity, liver of each item.
Give just the numeric value; % injected dose per gram need not be written.

-- ask Looking for the measured Biodistribution of radioactivity, liver of FCCOc1ccc(OCc2ccc([125I])cc2)cc1 [[^125I]7a] , can you help?
-- reply 5.15

-- ask Looking for the measured Biodistribution of radioactivity, liver of FCCOc1ccc(COc2ccc([125I])cc2)cc1 [[^125I]12a] , can you help?
-- reply 4.64

-- ask Looking for the measured Biodistribution of radioactivity, liver of [18F]CCOc1ccc(OCc2ccc(I)cc2)cc1 [[^18F]7a] , can you help?
-- reply 3.84

-- ask Looking for the measured Biodistribution of radioactivity, liver of [18F]CCOc1ccc(COc2ccc(I)cc2)cc1 [[^18F]12a] , can you help?
-- reply 4.64

###

Run Description: In vivo biodistribution in normal ICR mice
Measurement Parameters: i.v., 2 min
Measured Metric: Biodistribution of radioactivity, pancreas (% injected dose per gram)
Give just the numeric value; % injected dose per gram need not be written.

-- ask Looking for the measured Biodistribution of radioactivity, pancreas of [18F]CCOc1ccc(COc2ccc(I)cc2)cc1 [[^18F]12a] , can you help?
-- reply 8.75

-- ask Looking for the measured Biodistribution of radioactivity, pancreas of [18F]CCOc1ccc(OCc2ccc(I)cc2)cc1 [[^18F]7a] , can you help?
-- reply 8.18

-- ask Looking for the measured Biodistribution of radioactivity, pancreas of FCCOc1ccc(OCc2ccc([125I])cc2)cc1 [[^125I]7a] , can you help?
-- reply 8.15

-- ask Looking for the measured Biodistribution of radioactivity, pancreas of FCCOc1ccc(COc2ccc([125I])cc2)cc1 [[^125I]12a] , can you help?
-- reply 6.45

###

Run Description: In vivo biodistribution in normal ICR mice
Measurement Parameters: i.v., 10 min
Provide the reported Biodistribution of radioactivity, blood of each item.
Give just the numeric value; % injected dose per gram need not be written.

-- ask Looking for the measured Biodistribution of radioactivity, blood of [18F]CCOc1ccc(OCc2ccc(I)cc2)cc1 [[^18F]7a] , can you help?
-- reply 4.29

-- ask Looking for the measured Biodistribution of radioactivity, blood of FCCOc1ccc(COc2ccc([125I])cc2)cc1 [[^125I]12a] , can you help?
-- reply 3.88

-- ask Looking for the measured Biodistribution of radioactivity, blood of [18F]CCOc1ccc(COc2ccc(I)cc2)cc1 [[^18F]12a] , can you help?
-- reply 4.55

-- ask Looking for the measured Biodistribution of radioactivity, blood of FCCOc1ccc(OCc2ccc([125I])cc2)cc1 [[^125I]7a] , can you help?
-- reply 3.03

###

Run Description: In vivo biodistribution in normal ICR mice
Measurement Parameters: i.v., 30 min
Measured Metric: Biodistribution of radioactivity, muscle (% injected dose per gram)
Give just the numeric value; % injected dose per gram need not be written.

-- ask Looking for the measured Biodistribution of radioactivity, muscle of [18F]CCOc1ccc(OCc2ccc(I)cc2)cc1 [[^18F]7a] , can you help?
-- reply 3.82

-- ask Looking for the measured Biodistribution of radioactivity, muscle of FCCOc1ccc(COc2ccc([125I])cc2)cc1 [[^125I]12a] , can you help?
-- reply 0.99

-- ask Looking for the measured Biodistribution of radioactivity, muscle of [18F]CCOc1ccc(COc2ccc(I)cc2)cc1 [[^18F]12a] , can you help?
-- reply 4.71

-- ask Looking for the measured Biodistribution of radioactivity, muscle of FCCOc1ccc(OCc2ccc([125I])cc2)cc1 [[^125I]7a] , can you help?
-- reply 1.29
